All figures here come from ChEMBL document CHEMBL1126156.

# TARGET_SYSTEM: Estrogen receptor (Bos taurus) (UniProt Q9XSB5+P49884)
# PROTOCOL_DESCRIPTION: Relative binding affinity for calf uterus estrogen receptor after 2 hr at 0 degree C
# Format: protein assay
Binary call on RBA with cut-off 20%: strictly below means True, and equality or higher means False.

Some solved cases for reference:
INSERT INTO results (query_smiles, classification) VALUES
  ('Oc1ccc(C(=C2CCCCCC2)c2ccc(O)cc2)cc1', 'True'),
  ('CC(C)N(CCOc1ccc(C(C#N)=C(c2ccccc2)c2ccccc2)cc1)C(C)C', 'True'),
  ('CC(C)C(Cl)=C(c1ccc(O)cc1)c1ccc(O)cc1', 'False'),
  ('NCC(=C(c1ccc(O)cc1)c1ccc(O)cc1)c1ccccc1', 'True'),
  ('Oc1ccc(C(=C2CCCC2)c2ccc(O)cc2)cc1', 'False');

Lab log: compare recorded RBA with 20%; is it strictly lower for Oc1ccc(C(=C2CCCCC2)c2ccc(O)cc2)cc1 ? False

Input CC(C)N(CCOc1ccc(C(=C(C#N)c2ccccc2)c2ccc(OCCN(C(C)C)C(C)C)cc2)cc1)C(C)C True

Input CC(C)C=C(c1ccc(O)cc1)c1ccc(O)cc1 False

###

# Test system: BT-20
# PROTOCOL_DESCRIPTION: Cytotoxic effect on ER-negative BT20 cell proliferation
# Format: functional, Homo sapiens
# Parameters: concentration or dose not given beside the values
Binary call on Inhibition with cut-off 40%: strictly below means yes, and equality or higher means no.

Some solved cases for reference:
INSERT INTO assay_data (query_smiles, classification) VALUES
  ('Oc1ccc(C(=C2CCCCCC2)c2ccc(O)cc2)cc1', 'yes'),
  ('NCC(=C(c1ccc(O)cc1)c1ccc(O)cc1)c1ccccc1', 'yes'),
  ('CC(C)N(CCOc1ccc(C(=C(C#N)c2ccccc2)c2ccc(OCCN(C(C)C)C(C)C)cc2)cc1)C(C)C', 'no');

Lab log: compare recorded Inhibition with 40%; is it strictly lower for Oc1ccc(C(=C2CCCCC2)c2ccc(O)cc2)cc1 ? yes

###

Listed below: residual activity values for each entry.
# Species on record: Rattus norvegicus
# PROTOCOL_DESCRIPTION: Percent stimulation or inhibition of protein kinase C III activity for protamine sulfate in the presence of EGTA.
# Set-up: concentration or dose not given beside the values
# STATED_CONDITIONS: values are per cent of control
Give the value, in units of %, as a plain number.

INSERT INTO results (query_smiles, unit_string, test_result) VALUES
  ('CC(C)C=C(c1ccc(O)cc1)c1ccc(O)cc1', '%', 95),
  ('N#CC(=C(c1ccc(O)cc1)c1ccc(O)cc1)c1ccc(O)cc1', '%', 33),
  ('CC/C(=C(\c1ccccc1)c1ccc(OCCN(C)C)cc1)c1ccccc1', '%', 107),
  ('NCC(=C(c1ccc(O)cc1)c1ccc(O)cc1)c1ccccc1', '%', 20);

GET /values?readout=residual activity&item= N#CC(=C(c1ccc(O)cc1)c1ccc(O)cc1)c1ccccc1 50

Input CC/C(=C(/c1ccc(O)cc1)c1ccc(OCCN(C)C)cc1)c1ccccc1 100

###

Listed below: residual activity values for each entry.
# Organism: Rattus norvegicus
# PROTOCOL_DESCRIPTION: Percent stimulation or inhibition of protein kinase C III activity for protamine sulfate in the presence of EGTA.
# Parameters: concentration or dose not given beside the values
# STATED_CONDITIONS: values are per cent of control
Give the value, in units of %, as a plain number.

The examples below pair each entry with its known result.
INSERT INTO measurements (query_smiles, metric_name, unit_string, test_result) VALUES
  ('Oc1ccc(C(=C2CCCC2)c2ccc(O)cc2)cc1', 'residual activity', '%', 40),
  ('CC(C)CCOc1ccc(C(=C(C#N)c2ccccc2)c2ccc(OCCC(C)C)cc2)cc1', 'residual activity', '%', 78),
  ('CC(C)N(CCOc1ccc(C(=C(C#N)c2ccccc2)c2ccc(OCCN(C(C)C)C(C)C)cc2)cc1)C(C)C', 'residual activity', '%', 85),
  ('N#CC(=C(c1ccccc1)c1ccccc1)c1ccccc1', 'residual activity', '%', 106),
  ('N#C/C(=C(\c1ccccc1)c1ccc(O)cc1)c1ccccc1', 'residual activity', '%', 90),
  ('N#C/C(=C(\c1ccccc1)c1ccc(O)cc1)c1ccc(O)cc1', 'residual activity', '%', 68);

GET /values?readout=residual activity&item= COc1ccc(C(=C(C#N)c2ccccc2)c2ccc(OC)cc2)cc1 92
